Assay: Thermodynamic equilibrium aqueous solubility
Format: physicochemical
Settings: aqueous buffer pH 6.5, aqueous buffer, thermodynamic from solid; pH 6.5 buffer, 18-24 hours at room temperature; read-out: Solubility (μg/mL) pH 1.0, 4.0, 6.5, 7.4 buffers
Can you tell me solubility for the items I'm about to list?

Which solubility value belongs to CC[C@@H](CC(=O)OCOC(=O)OCC(C)OP(=O)(O)O)c1ccc(N(CC(C)C)CC(C)C)c(NC(=O)Nc2ccc(C)cc2)c1 (stereo partly shown) ?
22 µg/mL

Which solubility value belongs to CC[C@@H](CC(=O)OCOC(=O)CCCOP(=O)(O)O)c1ccc(N(CC(C)C)CC(C)C)c(NC(=O)Nc2ccc(C)cc2)c1 ?
> 500 µg/mL

Which solubility value belongs to CC[C@@H](CC(=O)OC(C)OC(=O)N(C)c1ncccc1COP(=O)(O)O)c1ccc(N(CC(C)C)CC(C)C)c(NC(=O)Nc2ccc(C)cc2)c1 (stereo partly shown) ?
> 500 µg/mL

Which solubility value belongs to CCOP(=O)(O)OCOC(=O)C[C@H](CC)c1ccc(N(CC(C)C)CC(C)C)c(NC(=O)Nc2ccc(C)cc2)c1 ?
> 2000 µg/mL

* * *

Target: indoleamine 2,3-dioxygenase (IDO) (Homo sapiens, UniProt P14902)
Construct: endogenous in cells
Sequence (P14902 whole entry): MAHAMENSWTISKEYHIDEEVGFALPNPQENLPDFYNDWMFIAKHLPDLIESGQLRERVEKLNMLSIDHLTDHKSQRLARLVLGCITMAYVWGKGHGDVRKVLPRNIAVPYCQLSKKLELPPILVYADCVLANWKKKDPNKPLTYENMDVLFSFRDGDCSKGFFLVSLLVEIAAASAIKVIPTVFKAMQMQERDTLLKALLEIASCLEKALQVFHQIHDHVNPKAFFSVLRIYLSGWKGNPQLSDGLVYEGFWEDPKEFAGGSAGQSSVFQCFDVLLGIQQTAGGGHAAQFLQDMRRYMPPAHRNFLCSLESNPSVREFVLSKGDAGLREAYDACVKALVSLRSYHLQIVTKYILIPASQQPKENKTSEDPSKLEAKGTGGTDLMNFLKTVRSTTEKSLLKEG
Assay: HeLa cell-based indoleamine 2,3-dioxygenase (IDO) assay, kynurenine production
Conditions: HeLa cells, IFNγ 25 ng/mL, 48 hour incubation
OBSERVABLE: pIC50
A value of pIC50 is the negative decimal logarithm of a concentration given in moles per litre.

Which pIC50 value belongs to CC[C@@H](CC(=O)O)c1ccc(N(CC(C)C)CC(C)C)c(NC(=O)Nc2ccc(C)cc2)c1 [Example 1E] ?
8.39

* * *

Assay: Thermodynamic equilibrium aqueous solubility
Assay type: physicochemical
Conditions: aqueous buffer pH 4.0, aqueous buffer, thermodynamic from solid; pH 4.0 buffer, 18-24 hours at room temperature; read-out: Solubility (μg/mL) pH 1.0, 4.0, 6.5, 7.4 buffers
OBSERVABLE: solubility

Which solubility value belongs to CC[C@@H](CC(=O)OCOC(=O)CCCOP(=O)(O)O)c1ccc(N(CC(C)C)CC(C)C)c(NC(=O)Nc2ccc(C)cc2)c1 ?
> 500 µg/mL

Which solubility value belongs to CCOP(=O)(O)OCOC(=O)C[C@H](CC)c1ccc(N(CC(C)C)CC(C)C)c(NC(=O)Nc2ccc(C)cc2)c1 ?
> 1100 µg/mL

Which solubility value belongs to CC[C@@H](CC(=O)OCOC(=O)OCC(C)OP(=O)(O)O)c1ccc(N(CC(C)C)CC(C)C)c(NC(=O)Nc2ccc(C)cc2)c1 (stereo partly shown) ?
> 500 µg/mL

Which solubility value belongs to CC[C@@H](CC(=O)OC(C)OC(=O)N(C)c1ncccc1COP(=O)(O)O)c1ccc(N(CC(C)C)CC(C)C)c(NC(=O)Nc2ccc(C)cc2)c1 (stereo partly shown) ?
> 500 µg/mL

* * *

Test: Thermodynamic equilibrium aqueous solubility
Format: physicochemical
Conditions: aqueous buffer pH 7.4, aqueous buffer, thermodynamic from solid; pH 7.4 buffer, 18-24 hours at room temperature; read-out: Solubility (μg/mL) pH 1.0, 4.0, 6.5, 7.4 buffers
OBSERVABLE: solubility

Which solubility value belongs to CC[C@@H](CC(=O)OCOC(=O)CCCOP(=O)(O)O)c1ccc(N(CC(C)C)CC(C)C)c(NC(=O)Nc2ccc(C)cc2)c1 [Example 4] ?
158 µg/mL

Which solubility value belongs to CC[C@@H](CC(=O)OC(C)OC(=O)N(C)c1ncccc1COP(=O)(O)O)c1ccc(N(CC(C)C)CC(C)C)c(NC(=O)Nc2ccc(C)cc2)c1 (some centres unmarked) [Example 20] ?
> 500 µg/mL

Which solubility value belongs to CCOP(=O)(O)OCOC(=O)C[C@H](CC)c1ccc(N(CC(C)C)CC(C)C)c(NC(=O)Nc2ccc(C)cc2)c1 [Example 9] ?
> 2000 µg/mL

Which solubility value belongs to CC[C@@H](CC(=O)OCOC(=O)OCC(C)OP(=O)(O)O)c1ccc(N(CC(C)C)CC(C)C)c(NC(=O)Nc2ccc(C)cc2)c1 (some centres unmarked) [Example 22] ?
16 µg/mL

Which solubility value belongs to CC[C@@H](CC(=O)O)c1ccc(N(CC(C)C)CC(C)C)c(NC(=O)Nc2ccc(C)cc2)c1 [Example 1E] ?
1 µg/mL

* * *

Test: Thermodynamic equilibrium aqueous solubility
Type: physicochemical
Conditions: aqueous buffer pH 1.0, simulated gastric fluid, thermodynamic from solid; pH 1.0 buffer, 18-24 hours at room temperature; read-out: Solubility (μg/mL) pH 1.0, 4.0, 6.5, 7.4 buffers
Can you tell me solubility for the items I'm about to list?
Kindly answer with a numeric value in µg/mL, unit omitted.

Which solubility value belongs to CC[C@@H](CC(=O)OCOC(=O)CCCOP(=O)(O)O)c1ccc(N(CC(C)C)CC(C)C)c(NC(=O)Nc2ccc(C)cc2)c1 [Example 4] ?
24

Which solubility value belongs to CC[C@@H](CC(=O)O)c1ccc(N(CC(C)C)CC(C)C)c(NC(=O)Nc2ccc(C)cc2)c1 [Example 1E] ?
630

Which solubility value belongs to CC[C@@H](CC(=O)OCOC(=O)OCC(C)OP(=O)(O)O)c1ccc(N(CC(C)C)CC(C)C)c(NC(=O)Nc2ccc(C)cc2)c1 (some centres unmarked) [Example 22] ?
15

Which solubility value belongs to CC[C@@H](CC(=O)OC(C)OC(=O)N(C)c1ncccc1COP(=O)(O)O)c1ccc(N(CC(C)C)CC(C)C)c(NC(=O)Nc2ccc(C)cc2)c1 (some centres unmarked) [Example 20] ?
35

Which solubility value belongs to CCOP(=O)(O)OCOC(=O)C[C@H](CC)c1ccc(N(CC(C)C)CC(C)C)c(NC(=O)Nc2ccc(C)cc2)c1 [Example 9] ?
215
